Where do these numbers come from? They come from patent US20240217990A1.

Target: TLR8 (Homo sapiens, UniProt Q9NR97)
Construct: Human peripheral blood mononuclear cells (PBMCs) consist of lymphocytes, monocytes and dendritic cells that express TLR7, TLR8 and TLR9; endogenous in cells
Sequence (Q9NR97 27-1041): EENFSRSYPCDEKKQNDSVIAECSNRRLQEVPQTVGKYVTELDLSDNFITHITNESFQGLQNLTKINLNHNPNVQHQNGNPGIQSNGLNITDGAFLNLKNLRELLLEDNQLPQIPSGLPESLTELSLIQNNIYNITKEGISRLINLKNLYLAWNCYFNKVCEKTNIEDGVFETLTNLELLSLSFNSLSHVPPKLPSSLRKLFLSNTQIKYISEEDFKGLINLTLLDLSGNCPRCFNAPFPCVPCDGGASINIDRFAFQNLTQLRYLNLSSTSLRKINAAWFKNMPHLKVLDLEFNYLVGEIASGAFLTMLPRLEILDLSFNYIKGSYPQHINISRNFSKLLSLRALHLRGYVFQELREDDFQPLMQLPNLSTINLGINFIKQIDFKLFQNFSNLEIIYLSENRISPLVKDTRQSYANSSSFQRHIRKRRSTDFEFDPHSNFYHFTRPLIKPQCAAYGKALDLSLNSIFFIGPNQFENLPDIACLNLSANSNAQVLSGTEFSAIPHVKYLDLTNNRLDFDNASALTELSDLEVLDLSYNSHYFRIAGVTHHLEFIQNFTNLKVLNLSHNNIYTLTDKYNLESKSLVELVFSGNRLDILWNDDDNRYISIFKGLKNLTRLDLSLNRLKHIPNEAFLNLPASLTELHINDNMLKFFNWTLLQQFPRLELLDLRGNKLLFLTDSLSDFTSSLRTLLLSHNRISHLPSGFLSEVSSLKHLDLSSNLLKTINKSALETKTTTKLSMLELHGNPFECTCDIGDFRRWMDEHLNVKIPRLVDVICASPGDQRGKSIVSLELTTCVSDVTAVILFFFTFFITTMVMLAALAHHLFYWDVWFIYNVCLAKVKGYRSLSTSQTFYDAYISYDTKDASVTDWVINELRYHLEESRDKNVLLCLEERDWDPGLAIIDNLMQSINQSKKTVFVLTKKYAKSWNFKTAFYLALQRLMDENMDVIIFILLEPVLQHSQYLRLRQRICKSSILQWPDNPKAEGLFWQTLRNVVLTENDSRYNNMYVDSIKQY
Test: TLR8 human PBMC cell-based assay (antagonist, Compound A stimulated cytokine release)
Details: human PBMCs; TLR8 agonist Compound A 800 nM, 6 hours; cytokines (TNFa and IL 12p40) in supernatant; read-out: TLR-8 EC50
EXPERIMENTAL_READOUT: pEC50
One number for each entry, as −log10 of the molar value.

Solved entries:
Cc1cc(-c2[nH]c3cc(C4CCC(N5CCC(O)C5)CC4)sc3c2C(C)C)cn2ncnc12 (stereo not shown)	8.02
Cc1cc(-c2[nH]c3cc(C4CCC5CN(CC(N)=O)CCC5C4)sc3c2C(C)C)cn2ncnc12 (stereo not shown)	8.27
Cc1cc(-c2[nH]c3cc(C(=O)N4CCCC(CN(C)C)C4)sc3c2C(C)C)cn2ncnc12 (stereo not shown)	8.19
Cc1cc(-c2[nH]c3cc(-c4nnc(N5CCNCC5)o4)sc3c2C(C)C)cc(C)n1	7.80
Cc1cc(-c2[nH]c3cc(-c4nc(N5CCNCC5)no4)sc3c2C(C)C)cc(C)n1	8.15
Cc1cc(-c2[nH]c3cc(C(=O)N4CC[C@@H](N(C)C)C4)sc3c2C(C)C)cn2ncnc12	8.96
Cc1cc(-c2[nH]c3cc(C(=O)N(C)[C@H]4CCN(CC(N)=O)C4)sc3c2C(C)C)cn2ncnc12	7.48
Cc1cc(-c2[nH]c3cc(C4=NCC5(CCNCC5)O4)sc3c2C(C)C)cn2ncnc12	8.03

Each compound below has a recorded value; state its pEC50.
1. CCc1c(-c2cc(C)c3ncnn3c2)[nH]c2cc(-c3nc4ccc(N5CCNCC5)nc4[nH]3)sc12
2. Cc1cc(-c2[nH]c3cc(C4CCN(C(=O)[C@@H]5COCCN5)CC4)sc3c2C(C)C)cn2ncnc12
3. Cc1cc(-c2[nH]c3cc(C(=O)N4CC5(CCNCC5)C4)sc3c2C(C)C)cn2ncnc12
4. Cc1cc(-c2[nH]c3cc(C(=O)N4CCC[C@H](N)C4)sc3c2C(C)C)cc(C)n1
5. Cc1cc(-c2[nH]c3cc(-c4ccc5c(c4)CN(CCO)CC5)sc3c2C(C)C)cn2ncnc12

Resp:
1. 7.48
2. 8.21
3. 7.80
4. 6.98
5. 9.52
